test system: CAKI-1 renal; test: NCI tumour cell line growth inhibition, 48 h
measurement.kind: TGI

>>> value("NNC(=O)Cc1cccnc1")
"> 100 µM"
>>> value("CCOC(=O)CCCn1c(SC)nc2cc(-c3ccco3)[nH]c2c1=O")
"90.4 µM"
>>> value("CC(C)(C)C(=O)Nc1ccccc1I(=O)=O")
"> 100 µM"
>>> value("OCC(O)C(O)C(O)C1SC(c2ccccc2)=NN1c1ccccc1 (stereo not given)")
"> 100 µM"
>>> value("Cc1nc2c(=O)[nH]c(=O)n(C)c2[nH]c1=O")
"> 100 µM"

====

tested on: HOP-92 NSCLC; assay: NCI tumour cell line growth inhibition, 48 h
Could you label it yes (1) if measured TGI is 60 µM or higher, and no (0) otherwise?

>>> qualitative_label("CC1(C)CC(=O)C2=C(C1)NC(SCC(=O)O)=C(C#N)C2c1ccc(Br)cc1 (stereo unspecified)")
"yes (1)"
>>> qualitative_label("O=C(CCCC1Cc2ccccc2C1=O)c1ccccc1 (stereo unspecified)")
"yes (1)"
>>> qualitative_label("CN1c2ccccc2C(=O)NC12CCN(Cc1ccccc1)CC2")
"yes (1)"
>>> qualitative_label("Cn1ccc2c(NCCN)c3c(c(NCCN)c21)C(=O)c1ccccc1C3=O")
"no (0)"
>>> qualitative_label("N#CN=C1c2ccccc2C(=NC#N)c2cc(CO)ccc21")
"yes (1)"
>>> qualitative_label("COc1cc(Cl)cc(-c2nn(C(=O)NCCN3CCN(C)CC3)cc2-c2ccncc2)c1")
"no (0)"
>>> qualitative_label("CC(C)=CCC/C(=C\\CC/C(=C\\CCc1ccoc1)C(=O)O)C(=O)O")
"yes (1)"
>>> qualitative_label("O=C(O)C(F)(F)C(F)(F)C(F)(F)C(F)(F)C(=O)O")
"yes (1)"
>>> qualitative_label("Cc1ccc2ccc(=O)oc2c1")
"yes (1)"
